Target: recombinant human MMP-13 (Homo sapiens, UniProt P45452)
Construct: made in house
Assay: In vitro metalloprotease inhibition, fluorogenic peptide assay (MMP-13)
Assay type: biochemical
Conditions: recombinant human MMP-13, APMA activated; fluorogenic MCA peptide substrate 4 uM; pH 7.5, room temperature
Binarize IC50 at 1000 nM; below is Condition met, at or above is Condition not met.

# Compound, Class Name
rows = [
    ("COc1ccc(-c2ccc(S(=O)(=O)N(C)[C@H](C)CS)cc2)cc1 [Example 124]", "Condition met"),
]

Report whether reported IC50 is lower than 1000 nM (strictly) for CCCCOc1ccc(S(=O)(=O)N[C@@H](CS)C(=O)NCc2ccccc2)cc1 [Example 209] Condition met

Next record, please: CCCCOc1ccc(S(=O)(=O)NC(CO)CS)cc1 (stereo not drawn) [Example 110] Condition not met

---

Target: recombinant human MMP-1 (Homo sapiens, UniProt P03956)
Sequence (P03956 100-469): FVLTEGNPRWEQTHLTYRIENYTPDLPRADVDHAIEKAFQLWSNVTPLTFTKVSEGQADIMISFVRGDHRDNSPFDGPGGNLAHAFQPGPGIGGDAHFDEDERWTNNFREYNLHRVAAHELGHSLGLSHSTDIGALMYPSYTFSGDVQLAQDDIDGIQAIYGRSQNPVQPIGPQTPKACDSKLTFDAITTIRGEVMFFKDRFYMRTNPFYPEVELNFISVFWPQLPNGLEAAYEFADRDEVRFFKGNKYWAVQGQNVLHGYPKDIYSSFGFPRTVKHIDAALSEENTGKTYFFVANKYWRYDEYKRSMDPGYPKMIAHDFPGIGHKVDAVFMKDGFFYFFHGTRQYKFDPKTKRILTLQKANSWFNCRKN
Test: In vitro metalloprotease inhibition, fluorogenic peptide assay (MMP-1)
Conditions: recombinant human MMP-1, APMA activated; fluorogenic MCA peptide substrate 4 uM; pH 7.5, room temperature
Experimental Endpoint: pIC50
One number for each entry, as −log10 of the molar value.

Study these solved cases before continuing.
# Compound, pIC50
data = [
    ("COc1ccc(S(=O)(=O)N(Cc2ccccc2)[C@H](C)CS)cc1 [Example 12C]", 5.89),
    ("CCCCOc1ccc(S(=O)(=O)N(CCN2CCCC2)[C@H](C)CS)cc1 [Example 47C]", 5.32),
    ("C[C@H](CS)N(CCN1CCOCC1)S(=O)(=O)c1ccc(Oc2ccccc2)cc1", 6.90),
]

State the recorded pIC50 for this entry: "C[C@H](CS)NS(=O)(=O)c1ccc(Br)cc1" 6.00

---

Molecular target: recombinant human MMP-13 (Homo sapiens, UniProt P45452)
Construct: made in house
Assay: In vitro metalloprotease inhibition, fluorogenic peptide assay (MMP-13)
Type: biochemical
Settings: recombinant human MMP-13, APMA activated; fluorogenic MCA peptide substrate 4 uM; pH 7.5, room temperature
pIC50: −log10 of the molar value.
Classification field: enter yes (1) for pIC50 values not below 7, no (0) for values below it.

Worked set:
# Molecule, Class Name
measured = [
    ("CCCCCc1ccc(S(=O)(=O)N(C)[C@H](C)CS)cc1", "yes (1)"),
    ("CC(=O)Nc1ccc(S(=O)(=O)N[C@@H](CS)C(N)=O)cc1", "no (0)"),
    ("CC(=O)SC[C@@H](C(N)=O)N(CCN1CCOCC1)S(=O)(=O)c1ccc(Sc2ccccc2)cc1", "no (0)"),
    ("C[C@H](CS)N(C)S(=O)(=O)c1ccc(Sc2ccccc2)cc1 [Example 41C]", "yes (1)"),
    ("CCc1cc(Br)ccc1S(=O)(=O)N[C@H](C)CS", "no (0)"),
    ("CCCCOc1ccc(S(=O)(=O)N[C@@H](CS)C(=O)NCCN2CCOCC2)cc1", "no (0)"),
    ("CCCCOc1ccc(S(=O)(=O)N(CCN2CCCC2)[C@H](C)CS)cc1 [Example 47C]", "yes (1)"),
    ("CC(=O)Nc1ccc(S(=O)(=O)N(C)[C@@H](CS)C(N)=O)cc1", "no (0)"),
    ("C[C@H](CS)NS(=O)(=O)c1cccc2cccnc12", "no (0)"),
    ("C[C@H](CS)NS(=O)(=O)c1ccccc1C(F)(F)F", "no (0)"),
]

I'd appreciate it if you could say whether "COc1ccc(S(=O)(=O)N[C@H](C)CS)c([N+](=O)[O-])c1" has pIC50 at least equal to 7. no (0)

Next record, please: "CCCCOc1ccc(S(=O)(=O)N(CCN2CCCCC2)[C@H](C)CS)cc1" yes (1)

Next record, please: "NC(=O)[C@H](CS)N(CCN1CCOCC1)S(=O)(=O)c1ccc(NC(=O)c2ccc(Cl)cc2)cc1" yes (1)
